So I've got a bunch of variants here, and I need their reverse-splicing fitness values.
B1: Azoarcus group I ribozyme (parent)
chain: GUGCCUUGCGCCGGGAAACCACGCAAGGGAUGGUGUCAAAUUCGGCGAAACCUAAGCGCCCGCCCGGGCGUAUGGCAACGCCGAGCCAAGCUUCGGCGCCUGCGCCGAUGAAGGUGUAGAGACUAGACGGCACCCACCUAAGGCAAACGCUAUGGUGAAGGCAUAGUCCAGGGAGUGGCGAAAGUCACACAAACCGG

- Variants of: B1
- protocol-description: reverse-splicing fitness (ratio to wild type); higher = more active; in vitro selection; Mg2+ level not given
Give bare numbers.

Please review the following examples before continuing.
{"change": "C82G A120U A145C C150U C169G U176C", "reverse-splicing fitness": 0.00277}
{"change": "C82U A111U C150U C169G U176C", "reverse-splicing fitness": 0.0162}
{"change": "C82G A111G A120C C169G U176C", "reverse-splicing fitness": 0.0193}
{"change": "A111C A120C A145U C150G C169G U176G", "reverse-splicing fitness": 0.00591}
{"change": "C82U A111U A120C A145C C150A C169A", "reverse-splicing fitness": 0.00749}
{"change": "A111U A120U A145U C150A C169A U176C", "reverse-splicing fitness": 0.00214}

Respectfully, I request reverse-splicing fitness for each entry included below.
1. C82G A111U A120C C169G U176C
2. C82U A111U A120U A145C C150G C169U U176A
3. C82G A111G A120G A145U C150A C169G U176C
4. C82G A111G A120G A145U C150A

Solution:
1: 0.0244; 2: 0.00255; 3: 0.0174; 4: 0.00906

Respectfully, I request reverse-splicing fitness for each entry included below.
1. C82A A111C A120G A145C C150G C169G
2. A111C A120C A145G C169U U176G
3. A111U A120C A145U C150U C169A U176C
4. C82G A111C A120U C169U
5. A111G A120U A145G C169G U176C
6. C82U A111C A120C C169U U176G
7. A111C A145U C150A C169A U176C
8. C82A A111C A120U A145U C150U C169G

Solution:
1: 0.00683; 2: 0.00591; 3: 0.00725; 4: 0.00571; 5: 0.0201; 6: 0.00583; 7: 0.0151; 8: 0.00466

Respectfully, I request reverse-splicing fitness for each entry included below.
1. C82G A111C A120G A145C C150U U176G
2. A111U A120C C150A U176G

Solution:
1: 0.00478; 2: 0.0118

Respectfully, I request reverse-splicing fitness for each entry included below.
1. C82A A120U A145G C150G U176C
2. C82A A120G A145U U176A

Solution:
1: 0.0117; 2: 0.0131

Respectfully, I request reverse-splicing fitness for each entry included below.
1. C82G A120U C150A C169G U176G
2. C82U A120G A145C C150G C169G
3. C82G A120C A145C C150A C169A U176G
4. C82U A111C A120U C150A C169G U176A
5. C82G A111U A145G C150G C169G U176A
6. A111U C150U C169G U176C
7. C82A A111U C150U C169A U176C
8. A111C A120U A145U U176A

Solution:
1: 0.00199; 2: 0.00837; 3: 0.00522; 4: 0.00492; 5: 0.0107; 6: 0.0215; 7: 0.015; 8: 0.221

Respectfully, I request reverse-splicing fitness for each entry included below.
1. C82U A111C A120U C150A C169A U176C
2. A111U A120G A145G C169G U176C
3. C82A A145C C150U C169U U176A
4. A111C C150U U176A
5. C82G A120G C169A U176G

Solution:
1: 0.00354; 2: 0.0601; 3: 0.0125; 4: 0.339; 5: 0.00403

Respectfully, I request reverse-splicing fitness for each entry included below.
1. C82A A111C A120C A145C
2. C82U A111U A145U C150G C169A U176A

Solution:
[0.0248, 0.0112]

Respectfully, I request reverse-splicing fitness for each entry included below.
1. C82U A111C A145G C169A
2. C82U A111G A120U C150G C169A U176G
3. C82U A120C A145C C150A C169G U176G
4. C82A A111C A120C A145U C150A C169U U176G
5. C82U A145C C150A C169G U176A
6. C82G A120U A145C C150U C169A U176A
7. C82A A120U A145C C169U

Solution:
0.00937
0.00235
0.00448
0.00918
0.0178
0.00222
0.00406
